target: T1, monomeric SARS-CoV-2 receptor binding domain (RBD-H6) (SARS-CoV-2, UniProt P0DTC2 319-541); assay: ELISA screen
T1 construct: Made in HEK293-6E cells; also called RBD Spike; monomeric RBD
Doc: threshold 0.004 OD (exclusive). Items with Mean normalized OD beneath it return criterion met; others return criterion not met.

Just wondering, is Mean normalized OD of Clec3b CRD-mouse IgG2a-Fc fusion protein (Fc fusion) VNLKCLLAFTQPKTFHEASEDCISQGGTLGTPQSELENEALFEYARHSVGNDANIWLGLNDMAAEGAWVDMTGGLLAYKNWETEITTQPDGGKAENCAALSGAANGKWFDKRCRDQLPYICQGGGSGGGSGGGS below 0.004 OD?
criterion met

Just wondering, is Mean normalized OD of Lgalsl CRD-mouse IgG2a-Fc fusion protein (Fc fusion) PFCGHIKGGMRPGKKVLVMGIVDLNPESFAISLTCGDSEDPPADVAIELKAVFTDRQLLRNSCISGERGEEQSAIPYFPFIPDQPFRVEILCEHPRFRVFVDGHQLFDFYHRIQTLSAIDTIKINGDLQIGGGSGGGSGGGS below 0.004 OD?
criterion met

Just wondering, is Mean normalized OD of Mrc1_7 CRD-mouse IgG2a-Fc fusion protein (Fc fusion) YGKSSYSLMKLKLPWHEAETYCKDHTSLLASILDPYSNAFAWMKMHPFNVPIWIALNSNLTNNEYTWTDRWRVRYTNWGADEPKLKSACVYMDVDGYWRTSYCNESFYFLCKGGGSGGGSGGGS below 0.004 OD?
criterion not met

Just wondering, is Mean normalized OD of Colec11 CRD-mouse IgG2a-Fc fusion protein (Fc fusion) TESKIYLLVKEEKRYADAQLSCQARGGTLSMPKDEAANGLMASYLAQAGLARVFIGINDLEKEGAFVYSDRSPMQTFNKWRSGEPNNAYDEEDCVEMVASGGWNDVACHITMYFMCEGGGSGGGSGGGS below 0.004 OD?
criterion not met

Just wondering, is Mean normalized OD of Ly75_6 CRD-mouse IgG2a-Fc fusion protein (Fc fusion) FQNKCFLKVNSGPVTFSQASGICHSYGGTLPSVLSRGEQDFIISLLPEMEASLWIGLRWTAYERINRWTDNRELTYSNFHPLLVGRRLSIPTNFFDDESHFHCALILNLKKSPLTGTWNFTSCSERHSLSLCQKGGGSGGGSGGGS below 0.004 OD?
criterion met

Just wondering, is Mean normalized OD of Mrc1_1 CRD-mouse IgG2a-Fc fusion protein (Fc fusion) LTGILYQINSKSALTWHQARASCKQQNADLLSVTEIHEQMYLTGLTSSLSSGLWIGLNSLSVRSGWQWAGGSPFRYLNWLPGSPSSEPGKSCVSLNPGKNAKWENLECVQKLGYICKGGGSGGGSGGGS below 0.004 OD?
criterion not met

Just wondering, is Mean normalized OD of Clec2d CRD-mouse IgG2a-Fc fusion protein (Fc fusion) VENKCFYFSEYPSNWTFAQAFCMAQEAQLARFDNQDELNFLMRYKANFDSWIGLHRESSEHPWKWTDNTEYNNTIPIRGEERFAYLNNNGISSTRIYSLRMWICSKLNSYSLHCQTGGGSGGGSGGGS below 0.004 OD?
criterion not met

Just wondering, is Mean normalized OD of Klre1 CRD-mouse IgG2a-Fc fusion protein (Fc fusion) FRCSCYFFSKEELIWRDSQRACLSLNSSLIRMNKEEMNFFSLKSFFWVGVYYNETRRQWLWEDHSVLPSGLFSKLEANMKNFCASYKSKEAYMEENCANKLTYICKGGGSGGGSGGGS below 0.004 OD?
criterion not met

Just wondering, is Mean normalized OD of Colec10 CRD-mouse IgG2a-Fc fusion protein (Fc fusion) TEEKFYYIVQEEKNYRESLTHCRIRGGMLAMPKDEVVNTLIADYVAKSGFFRVFIGVNDLEREGQYVFTDNTPLQNYSNWKEEEPSDPSGHEDCVEMLSSGRWNDTECHLTMYFVCEGGGSGGGSGGGS below 0.004 OD?
criterion not met

Just wondering, is Mean normalized OD of Lgals12_2 CRD-mouse IgG2a-Fc fusion protein (Fc fusion) CSRALPRGLWPGQVIVVRGLVLKEPKDFTLSLKDGTTHVPVTLRASFTDRTLAWVSSWGRKKLISAPFLFHPQRFFEVLLLCQEGGLKLALNGQGLGATSLDQKALEQLRELRISGNVHLYCVHCGGGSGGGSGGGS below 0.004 OD?
criterion not met

Just wondering, is Mean normalized OD of Klrk1 CRD-mouse IgG2a-Fc fusion protein (Fc fusion) HRNNCYQFFNEEKTWNQSQASCLSQNSSLLKIYSKEEQDFLKLVKSYHWMGLVQIPANGSWQWEDGSSLSYNQLTLVEIPKGSCAVYGSSFKAYTEDCANLNTYICMGGGSGGGSGGGS below 0.004 OD?
criterion met

Just wondering, is Mean normalized OD of Klri1 CRD-mouse IgG2a-Fc fusion protein (Fc fusion) FGNNFYCVFKENTKTWAESQSACEELNSHLVIIDSKAEVENLLLFEMDGWILHKMDGTNSSWLWRNDIKIQNTLTNDSEKKNHSCHYLRGNLFMPDECSAKKSYICEGGGSGGGSGGGS below 0.004 OD?
criterion met

Just wondering, is Mean normalized OD of Atrn CRD-mouse IgG2a-Fc fusion protein (Fc fusion) VGNSCLKITTAKENYDNAKLSCRNHNAFLASLTSQKKVEFVLKQLRLMQSSQSMSKLTLTPWVGLRKINVSYWCWEDMSPFTNSLLQWMPSEPSDAGFCGILSEPSTRGLKAATCINPLNGSVCEGGGSGGGSGGGS below 0.004 OD?
criterion met
